Target: Dickkopf-related protein 1 (Homo sapiens)
Test: DKK1 binders on small-molecule microarrays, primary screen, biochemical, small-molecule microarray, 635 nm fluorescence scan (AID 1106);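 note: score merges emission near 667 nm with signal to noise over three replicate slides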
Conditions: DKK1 binding, higher = more signal
# composite z-score values compiled below
recorded_endpoint: composite z-score

COC(=O)[C@H](C)NC(=O)CCC1CC(OC(=O)NCCc2ccc(F)cc2)CC2(CCCC(COC(=O)NCC3CCCCC3)O2)O1 (some centres not stated) ... 0.678
CC(CCN1CCc2nc(-c3ccccc3)c(-c3ccccc3)cc2C1)=NO[C@H](C)c1cn([C@H](CO)Cc2ccccc2)nn1 ... -0.193
O=C1[C@H]2[C@H]3[C@H](O)[C@H](O)CC(=NOC[C@@H](O)COCc4ccco4)[C@@H]3CC[C@H]2C(=O)N1c1cccc(Oc2ccccc2)c1 ... 0.461
CC(C)(C)N1C(=O)[C@H]2[C@H]3[C@H](O)[C@H](O)CC(=NNC(=O)OCc4ccccc4)[C@@H]3CC[C@H]2C1=O ... 0.455
CO[C@H]1COC(=O)[C@H](CCSC)NC(=O)CC=C[C@@H](C)[C@H](OC)COC(=O)[C@@H](OCc2ccccc2)C=C[C@@H]1C ... 1.38
CCOC(=O)[C@H](Cc1ccccc1)NC(=O)CCC1CC(OC(=O)NCc2cccc3ccccc23)CC2(CCCC(COC(=O)NCCc3ccc(Cl)cc3)O2)O1 (some centres not stated) ... 0.621
CCO[C@H](c1cc(OC)cc([N+](=O)[O-])c1OC)[C@H](C)[C@@H](OC)[C@H](C)C=CCC(=O)OC ... -0.359

----------
# z-score values compiled below
Assay: P. aeruginosa biofilm formation inhibitors, primary screen, PAO1 strain, BacTiter-Glo luminescence, LB-PBS (AID 1144)
Conditions: 12 h, higher = more signal
recorded_endpoint: z-score

COc1cccc([C@H](O)Cn2cc(-c3ccc(CON=C(C)C)cc3)nn2)c1 ... -0.24
O=C1CCCC=C1C(O)C1CCCCC1 (stereo not drawn) ... 0.993
CC(C)=CCCC(C)=CCON=C1C[C@@H](O)[C@@H](O)[C@@H]2[C@@H]3C(=O)N(Cc4ccc5c(c4)OCO5)C(=O)[C@@H]3CC[C@H]12 ... 0.802
COC(=O)[C@H](C)NC(=O)CCC1CC(OC(=O)NCc2cccc3ccccc23)CC2(CCCC(COC(=O)NCc3ccccc3)O2)O1 (stereo partly drawn) ... -1.33
COC(=O)[C@@H]1CC[C@H](C)[C@@H](c2ccc(C)cc2)N1C(=O)c1ccc(C=NOC[C@H]2O[C@H](c3ccccc3)C=C[C@@H]2Oc2ccc(OC)cc2)cc1 ... 0.605
C=CCOCC1CN2[C@@H](CC[C@@H](C)[C@@H]2c2ccc(Br)cc2)C(=O)O1 (stereo partly drawn) ... 1.1
O=C1[C@H]2[C@H]3[C@H](O)[C@H](O)CC(=NOCc4ccccc4)[C@@H]3CC[C@H]2C(=O)N1c1cccc(Oc2ccccc2)c1 ... 1.31
C[C@@H]1CC[C@H]2C(=O)O[C@@H](CN=[N+]=[N-])CN2[C@H]1c1ccc(Br)cc1 ... -0.608
CC(C)(C)N1C(=O)[C@H]2[C@@H]3C(=CC[C@H]2C1=O)C(=O)[C@H]1O[C@H]1[C@H]3O ... 0.652
COC(=O)[C@@H]1CC[C@H](C)[C@@H](c2ccc(C)cc2)N1C(=O)c1ccc(C=NOC[C@@H](O)[C@H]2O[C@@H]3OC(C)(C)O[C@@H]3[C@H]2O)cc1 ... -0.0399
C[C@@H]1CC[C@H]2C(=O)O[C@@H](COc3ccc(C(C)(C)C)cc3)CN2[C@H]1c1ccc(Br)cc1 ... 0.0807
COC(=O)CC=C[C@@H](C)[C@@H](C=NOC[C@@H](O)COCc1ccco1)OC ... 1.47
O=C(NN=C1C[C@@H](O)[C@@H](O)[C@@H]2[C@@H]3C(=O)N(Cc4ccccc4)C(=O)[C@@H]3CC[C@H]12)OCc1ccccc1 ... -0.281
CC(CCN1CCCc2nc(C)c(C)cc21)=NO[C@H](C)c1cn([C@H](CO)Cc2ccccc2)nn1 ... 0.13
CCOC(=O)CCN1C(=O)[C@H]2[C@@H]3C(=CC[C@H]2C1=O)C(=O)[C@H]1O[C@H]1[C@H]3O ... 0.737
O=C1[C@H]2[C@H]3[C@H](O)[C@H](O)CC(=NO[C@@H]4O[C@H](CO)[C@@H](O)[C@H](O)[C@H]4O)[C@H]3CC[C@H]2C(=O)N1c1ccc(F)cc1F ... 1.42
CC(C)C(=O)N[C@H]1CCCN1C(=O)C=Cc1ccccc1 ... 0.186
O=C1[C@H]2[C@H]3[C@H](O)[C@H](O)CC(=NOC[C@@H](O)COCc4ccco4)[C@@H]3CC[C@H]2C(=O)N1Cc1ccccc1 ... 0.969
CC(CCN1CCCCc2nc(C)c(C)cc21)=NO[C@@H](C)c1cc(-c2c(C)cc(C)cc2C)no1 ... -0.425
COc1ccc(OC[C@H]2CN3[C@@H](CC[C@@H](C)[C@@H]3c3ccc(Br)cc3)C(=O)O2)cc1 ... -0.225
Cc1ccc(S(=O)(=O)N[C@@H]2COC(=O)CC=C[C@@H](C)[C@H](NS(=O)(=O)c3ccc(C)cc3)COC(=O)[C@H](C)NC(=O)CC=C[C@H]2C)cc1 ... -0.88
O=C(NN=C1C[C@@H](O)[C@@H](O)[C@@H]2[C@@H]3C(=O)N(Cc4ccc5c(c4)OCO5)C(=O)[C@@H]3CC[C@@H]12)OCc1ccccc1 ... 0.156
CCOC(=O)[C@H](CC(C)C)NC(=O)CCC1CC(OC(=O)NCc2ccc3c(c2)OCO3)CC2(CCCC(COC(=O)NCc3ccccc3)O2)O1 (stereo partly drawn) ... 0.0377
